# target-entity: HLA-A*02:01
# test-method-notes: IEDB peptide-MHC binding, purified MHC/competitive/fluorescence; bounds were set here for any values at or beyond the usual limits of such assays
# study-conditions: source organism: Sudan ebolavirus
test-readout: IC50

Problem: // lookup IC50 for YTILNRKAI
Solution: ≥ 226 µM

Problem: Fill blank: measured IC50 of the sequence GRLIWTLDA is ____.
Solution: ≥ 593 µM

Problem: # input sequence: EVTEIDQLV ; wanted: its IC50
Solution: ≥ 86.1 µM

----------
# target-entity: HLA-B*53:01
# test-method-notes: IEDB peptide-MHC binding, purified MHC/competitive/radioactivity; filed as Kd, often an IC50 or EC50 that approximates it; bounds were set here for any values at or beyond the usual limits of such assays
# study-conditions: source organism: Vaccinia virus WR
Consider the following sequences; for each one, report its Kd.

Problem: Quick check: Kd on HLA-B*53:01, item APKQVAGTGV ?
Solution: ≥ 69.9 µM

Problem: Could you share what Kd was measured for DPPIPYSRV , tested on HLA-B*53:01?
Solution: ≥ 31.5 µM

Problem: Write down the reported Kd of CPQKKKSQA , test system: HLA-B*53:01.
Solution: ≥ 78.2 µM

----------
Task for the reader: assign each of the following sequences its reported Kd.
# target-entity: HLA-A*30:02
# test-method-notes: IEDB peptide-MHC binding, purified MHC/competitive/radioactivity; filed as Kd, often an IC50 or EC50 that approximates it; bounds were set here for any values at or beyond the usual limits of such assays
# study-conditions: source organism: SARS coronavirus Tor2

Problem: Returns the measured Kd for the input sequence. Input: FYGGWHNML
Solution: ≥ 100 µM

Problem: Using the record for NYTQHTSSM , report its Kd.
Solution: ≥ 81.1 µM

Problem: Using the record for KFLTNKLLL , report its Kd.
Solution: ≥ 27.3 µM

Problem: GET /values?readout=Kd&item= LFVTIYSHL
Solution: ≥ 47.4 µM

----------
# target-entity: HLA-A*68:01
# test-method-notes: IEDB peptide-MHC binding, purified MHC/competitive/radioactivity; filed as Kd, often an IC50 or EC50 that approximates it; bounds were set here for any values at or beyond the usual limits of such assays
# study-conditions: source organism: Dengue virus 1 Brazil/97-11/1997
test-readout: Kd (nM)
# number only, unit nM dropped from output

Problem: Report Kd for TTVITPMMR please.
Solution: 34.6

Problem: Request the reported Kd associated with RTYSDPLALR
Solution: 18.8

Problem: # Kd lookup, item ETLGEKWKR
Solution: 69.2

Problem: Can you look up the measured Kd of STSQETWNR for me?
Solution: 68.8

Problem: # input sequence: SAAIDGEYR ; wanted: its Kd
Solution: 41.6

----------
# target-entity: HLA-A*02:01
# test-method-notes: IEDB peptide-MHC binding, purified MHC/competitive/fluorescence; bounds were set here for any values at or beyond the usual limits of such assays
# study-conditions: source organism: Zaire ebolavirus
pIC50: −log10 of the molar value.
test-readout: pIC50

Problem: # pIC50 lookup, item FKAALSSLA
Solution: ≤ 3.96

Problem: Request the reported pIC50 associated with ATTAAGPPK
Solution: ≤ 3.45

Problem: What value of pIC50 has been recorded for this entry: REPVNATED
Solution: ≤ 3.42

Problem: Query: pIC50; subject: IDFLLQRWG
Solution: ≤ 3.87

Problem: What value of measured pIC50 is listed for AIGLAWIPY ?
Solution: ≤ 3.61

Problem: Which pIC50 reading was recorded for the sequence GVPPKVVNY ?
Solution: ≤ 3.70

Problem: For the sequence shown here, ERLAKLTEA , give the reported pIC50.
Solution: ≤ 3.76

Problem: Which measured pIC50 value corresponds to SADSFLLML ?
Solution: ≤ 3.21

Problem: Which pIC50 reading was recorded for the sequence FLIKFLLIH ?
Solution: ≤ 3.53

Problem: Query: pIC50; subject: NIKRTLAAM
Solution: ≤ 3.34
